Assay: small-molecule binders of probe aNOTCH2, primary screen, biochemical, small-molecule microarray, 635/667 nm fluorescence (AID 1121);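 note: score merges feature fluorescence read at 667 nm with its signal to noise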
Conditions: higher = more signal
Give measured composite z-score for each item. Keep answers brief.
Numbers only.

{"MOLECULE": "CC(C)(C)OC(=O)CC[C@@]1(C(=O)O)N=C(c2ccc(OCCCO)cc2)O[C@@H]1c1ccccc1CN=[N+]=[N-]", "composite z-score": 0.046}
{"MOLECULE": "O=C1O[C@H](c2ccccc2)[C@H](c2ccccc2)N2[C@H]1[C@@H](C(=O)O)[C@]1(C(=O)Nc3ccccc31)[C@H]2c1ccc(O)cc1", "composite z-score": -0.131}
{"MOLECULE": "O=C1c2ccccc2[C@@]2(Cc3ccccc3N(C3CC3)C2=O)[C@H](c2ccc(CO)cc2)N1C1CCCCC1", "composite z-score": -0.0804}
{"MOLECULE": "COc1ccc(CCNC(=O)[C@@]2(Sc3ccc(C)cc3)CC(=O)N(Cc3cc(C(F)(F)F)cc(C(F)(F)F)c3)[C@@H]2c2ccc(CO)cc2I)cc1", "composite z-score": -0.106}
{"MOLECULE": "NC(=O)N1C(=O)C2C(C1=O)C1C=C(CCCO)C2C(c2cccs2)N1Cc1cc2c(cc1Br)OCO2 (stereo unspecified)", "composite z-score": -0.12}
{"MOLECULE": "Cc1ccc(S[C@]2(C(=O)NCC(C)C)CC(=O)N(Cc3ccccc3Cl)[C@@H]2c2ccc(CO)cc2I)cc1", "composite z-score": -0.127}

Please state, for each entry, its recorded composite z-score.
1. COC(=O)[C@@]1(Cc2ccc(OC)cc2)[C@H]2c3cc(C(=O)N4CCCC4)n(CCc4cc5ccccc5[nH]4)c3C[C@H]2CN1C(=O)c1ccccc1
2. O=C(O)[C@H](Cc1ccccc1)n1cc(-c2ccccn2)nn1
3. COc1c(C)cc(-c2cc3c(c(Cc4ccccc4)n2)[Si](C(C)C)(C(C)C)OC3)cc1C

1: 0.213; 2: -0.1; 3: -0.0907

Your task in this section: give composite z-score for each listed record.
1. CCCCC(=C=CC[C@@H](O)c1ccc(OCCO)cc1)C[C@@H](O)COCc1ccccc1
2. COCCCNC(=O)[C@@]1(Sc2ccc(C)cc2)CC(=O)N(Cc2cc(C(F)(F)F)cc(C(F)(F)F)c2)[C@@H]1c1ccc(CO)cc1
3. C[C@]1(C(=O)NCCN2CCOCC2)c2ccccc2C(=O)N(Cc2ccc(OC(F)(F)F)cc2)[C@H]1c1ccc(CO)cc1
4. COc1ccccc1CN1C(=O)c2ccccc2[C@](Cc2ccccc2I)(C(=O)NC(C)C)[C@@H]1c1ccc(CO)cc1
5. NC(=O)NCC#Cc1ccc2c(c1)[C@]1(C(=O)N2)[C@H](C(=O)Nc2nc3ccccc3s2)[C@H]2C(=O)O[C@H](c3ccccc3)[C@H](c3ccccc3)N2[C@@H]1c1ccc(O)cc1
6. [N-]=[N+]=Nc1ccccc1C[C@]1(C(=O)NCc2ccccc2)N=C(c2ccc(OCCCO)cc2)O[C@H]1c1ccccc1
7. CC(C)OC(=O)CC(=O)CC(O)c1cccc(C#N)c1 (stereo unspecified)

-0.145
-0.0136
-0.0966
-0.123
0.103
0.0443
-0.022

---

Molecular target: Fibroblast growth factor 2 (Homo sapiens) (UniProt P09038)
Sequence (P09038 whole entry, looked up): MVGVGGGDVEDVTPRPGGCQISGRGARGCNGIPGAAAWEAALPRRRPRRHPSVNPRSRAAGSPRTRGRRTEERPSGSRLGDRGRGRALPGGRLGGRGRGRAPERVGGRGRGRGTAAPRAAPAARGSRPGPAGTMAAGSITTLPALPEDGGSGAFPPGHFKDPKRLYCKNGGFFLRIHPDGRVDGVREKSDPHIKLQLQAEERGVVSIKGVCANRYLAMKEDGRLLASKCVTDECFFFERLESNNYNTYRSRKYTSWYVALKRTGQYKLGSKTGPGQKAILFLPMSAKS
Assay: FGF2 binders on small-molecule microarrays, primary screen, biochemical, small-molecule microarray, 635/667 nm fluorescence (AID 1133)
Conditions: small-molecule microarray binding, FGF2, fluorescence 635/667; higher = more signal
Would you mind telling me the reported composite z-score of each entry?
One number for each entry.

Solved entries:
{"COMPOUND": "COCCOC(=O)N1C(=O)[C@@]2(c3cc(C#CCC(C(=O)OC)C(=O)OC)ccc31)[C@H](c1ccc(OCCO)cc1)N1[C@H](c3ccccc3)[C@H](c3ccccc3)OC(=O)[C@H]1[C@@H]2C(=O)N1CCN(c2ncccn2)CC1", "composite z-score": 1.23}
{"COMPOUND": "CC(=O)NCCCC[C@@H]1NC(=O)[C@@H]2C[C@H](C(=O)O)[C@H](c3ccc(O)cc3)N2C1=O", "composite z-score": -1.15}
{"COMPOUND": "C=C(CCCC)/C(=C/C[C@@H](OC(C)=O)c1ccc(CO)o1)c1cc(C(=O)OC)ccc1OC", "composite z-score": 1.17}

Query compound follows.
Param readout = composite z-score; param system = Fibroblast growth factor 2 (Homo sapiens) (UniProt P09038); param query = COc1ccc(C(O)C2C=CC3C(=O)N(c4ccccc4)C(=O)C3N2Nc2ccc(C#N)cc2)c2ccccc12 (centres undefined) ; response: value
-0.012

Reference source: PubChem BioAssay
